TGT: T1, cynomolgus monkey IL-33 expressed with a C-terminal hexahistidine tag (cynomolgus monkey)
T1 construct: also called MfIL-33-6His; Mf-IL-33-6His
T1 chain: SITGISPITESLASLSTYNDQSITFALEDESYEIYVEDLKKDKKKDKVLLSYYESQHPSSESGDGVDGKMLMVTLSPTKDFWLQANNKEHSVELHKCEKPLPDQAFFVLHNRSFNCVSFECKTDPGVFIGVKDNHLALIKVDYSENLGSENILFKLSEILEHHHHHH
ASSAY_EXPLANATION: SPR 25C pH7.4, mAb captured
Please respond with reported koff for every item in the list.
Just the number in s⁻¹, nothing appended.

Asked: Fill blank: measured koff of the binder H4H9640P (antibody, human IgG4, V domains shown, Human IgG4 Fc (H4H)) VH: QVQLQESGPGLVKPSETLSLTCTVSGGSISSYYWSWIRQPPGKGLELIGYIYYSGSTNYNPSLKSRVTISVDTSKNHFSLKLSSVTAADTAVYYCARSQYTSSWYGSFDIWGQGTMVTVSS VL: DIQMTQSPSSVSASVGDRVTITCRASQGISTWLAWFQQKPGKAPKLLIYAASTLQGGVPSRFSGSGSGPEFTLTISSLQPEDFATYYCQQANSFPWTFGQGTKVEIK is ____.
Given back: 0.00137

Asked: Now the same for H4H9675P (antibody, human IgG4, V domains shown, Human IgG4 Fc (H4H)) VH: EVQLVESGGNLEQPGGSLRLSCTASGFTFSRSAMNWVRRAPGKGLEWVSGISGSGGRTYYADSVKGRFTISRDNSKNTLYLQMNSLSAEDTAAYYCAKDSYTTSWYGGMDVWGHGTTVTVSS VL: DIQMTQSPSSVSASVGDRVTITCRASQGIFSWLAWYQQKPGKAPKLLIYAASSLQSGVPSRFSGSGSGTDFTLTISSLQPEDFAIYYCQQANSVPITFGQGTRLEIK
Given back: 0.00129

Asked: Now the same for H1M9566N (antibody, mouse IgG1, V domains shown, Human variable domains, mouse IgG1 Fc (H1M)) VH: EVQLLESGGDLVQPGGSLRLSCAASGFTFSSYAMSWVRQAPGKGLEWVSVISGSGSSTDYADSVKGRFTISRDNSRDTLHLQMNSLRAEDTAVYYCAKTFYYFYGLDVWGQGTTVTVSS VL: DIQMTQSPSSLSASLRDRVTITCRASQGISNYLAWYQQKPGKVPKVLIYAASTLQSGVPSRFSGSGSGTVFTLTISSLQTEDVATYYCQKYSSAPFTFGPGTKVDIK
Given back: 9.75e-05
